biological target: PDE4B1 (Homo sapiens, UniProt Q07343); construct: purchased BPS 60041; test: PDE4 inhibitory activity assay (FAM-cAMP enzymatic reaction), PDE4B1; assay type: biochemical; settings: 20 nM
Sequence (Q07343 whole entry): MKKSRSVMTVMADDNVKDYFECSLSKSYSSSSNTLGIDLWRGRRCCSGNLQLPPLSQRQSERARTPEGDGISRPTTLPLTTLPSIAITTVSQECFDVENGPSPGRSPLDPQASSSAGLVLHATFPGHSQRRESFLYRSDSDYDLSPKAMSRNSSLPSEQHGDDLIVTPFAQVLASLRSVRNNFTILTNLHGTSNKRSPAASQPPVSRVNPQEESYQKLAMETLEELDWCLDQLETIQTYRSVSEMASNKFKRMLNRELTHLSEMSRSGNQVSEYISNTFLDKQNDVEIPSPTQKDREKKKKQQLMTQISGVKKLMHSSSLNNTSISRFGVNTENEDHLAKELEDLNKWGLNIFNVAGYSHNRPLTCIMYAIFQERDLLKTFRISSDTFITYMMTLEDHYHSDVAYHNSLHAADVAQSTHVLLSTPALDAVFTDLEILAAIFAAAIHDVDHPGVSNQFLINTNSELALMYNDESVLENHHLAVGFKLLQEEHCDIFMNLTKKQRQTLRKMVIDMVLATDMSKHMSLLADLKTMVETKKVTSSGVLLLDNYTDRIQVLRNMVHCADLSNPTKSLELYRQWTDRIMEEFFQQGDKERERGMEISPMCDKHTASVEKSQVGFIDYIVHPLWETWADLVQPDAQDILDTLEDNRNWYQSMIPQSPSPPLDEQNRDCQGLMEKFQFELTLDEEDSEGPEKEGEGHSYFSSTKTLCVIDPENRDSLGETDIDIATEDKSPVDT
Measured Metric: PDE4 B1 inhibitory effect at 20 nM

>>> result("CCOc1nc([C@@H](CS(C)(=O)=O)n2c(=O)n(C)c3cc(-c4ccccc4CC)ccc32)ccc1OC")
"+"
>>> result("CCOc1nc([C@@H](CS(C)(=O)=O)n2c(=O)[nH]c3c(C)c(-c4ccccn4)cnc32)ccc1OC")
"+"
>>> result("CCOc1nc([C@H](CS(C)(=O)=O)n2c(=O)n(C)c3c(C)c(-c4ccccc4F)cnc32)ccc1OC")
"−"
>>> result("CCOc1nc([C@@H](CS(C)(=O)=O)n2c(=O)[nH]c3c(C)c(-c4cc(C)ccc4C)cnc32)ccc1OC")
"+"
>>> result("CCOc1nc([C@@H](CS(C)(=O)=O)n2c(=O)[nH]c3cc(-c4c(C)cccc4C)ccc32)ccc1OC")
"+"
>>> result("CCOc1nc([C@@H](CS(C)(=O)=O)n2c(=O)n(CCS(C)(=O)=O)c3cc(Br)ccc32)ccc1OC")
"−"
>>> result("CCOc1nc([C@H](CS(C)(=O)=O)n2c(=O)[nH]c3c(C)c(-c4cc(F)ccc4F)cnc32)ccc1OC")
"−"

====

molecular target: PDE4D2 (Homo sapiens, UniProt Q08499); test: PDE4 inhibitory activity assay (FAM-cAMP enzymatic reaction), PDE4D2; type: biochemical; settings: 20 nM
Sequence (Q08499 303-809): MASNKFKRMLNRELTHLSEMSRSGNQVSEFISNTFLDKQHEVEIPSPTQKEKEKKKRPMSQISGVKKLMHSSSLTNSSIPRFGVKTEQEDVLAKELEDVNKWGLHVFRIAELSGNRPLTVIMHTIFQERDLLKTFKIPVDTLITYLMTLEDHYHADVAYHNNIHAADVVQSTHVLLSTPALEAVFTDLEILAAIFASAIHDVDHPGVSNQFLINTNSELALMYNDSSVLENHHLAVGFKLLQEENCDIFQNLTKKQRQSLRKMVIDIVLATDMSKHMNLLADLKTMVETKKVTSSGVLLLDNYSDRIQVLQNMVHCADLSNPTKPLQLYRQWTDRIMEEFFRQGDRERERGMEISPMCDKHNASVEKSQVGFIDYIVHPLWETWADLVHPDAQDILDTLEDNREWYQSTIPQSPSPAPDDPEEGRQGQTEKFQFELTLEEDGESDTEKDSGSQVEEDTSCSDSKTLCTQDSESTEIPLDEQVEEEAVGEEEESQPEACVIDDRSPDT
Measured Metric: PDE4 D2 inhibitory effect at 20 nM

>>> result("CCOc1nc([C@@H](CS(C)(=O)=O)n2c(=O)[nH]c3c(C)c(-c4ccc(OC)cc4F)cnc32)ccc1OC [Ex. 43]")
"+"
>>> result("CCOc1nc([C@@H](CS(C)(=O)=O)n2c(=O)n(C)c3c(C)c(-c4ccccc4)cnc32)ccc1OC(F)F [Ex. 66]")
"+"
>>> result("CCOc1nc([C@H](CS(C)(=O)=O)n2c(=O)n(CC(F)(F)F)c3c(C)c(-c4ccccc4F)cnc32)ccc1OC [Ex. 52]")
"−"
>>> result("CCOc1nc([C@@H](CS(C)(=O)=O)n2c(=O)n(C)c3cc(-c4cccc(F)c4C)ccc32)ccc1OC [Ex. 174]")
"+"
>>> result("CCOc1nc([C@@H](CS(C)(=O)=O)n2c(=O)[nH]c3c(-c4ccccc4)cccc32)ccc1OC [Ex. 206]")
"+"
>>> result("CCOc1nc([C@@H](CS(C)(=O)=O)n2c(=O)[nH]c3cc(-c4ccc(C)cc4C)cnc32)ccc1OC [Ex. 99]")
"+"
>>> result("CCOc1nc([C@H](CS(C)(=O)=O)n2c(=O)[nH]c3c(C)c(-c4cccc(F)c4F)cnc32)ccc1OC [Ex. 26]")
"−"

====

Biological target: PDE4A1A (Homo sapiens)
Construct: purchased BPS 60040
Sequence (P27815 1-647 isoform P27815-4): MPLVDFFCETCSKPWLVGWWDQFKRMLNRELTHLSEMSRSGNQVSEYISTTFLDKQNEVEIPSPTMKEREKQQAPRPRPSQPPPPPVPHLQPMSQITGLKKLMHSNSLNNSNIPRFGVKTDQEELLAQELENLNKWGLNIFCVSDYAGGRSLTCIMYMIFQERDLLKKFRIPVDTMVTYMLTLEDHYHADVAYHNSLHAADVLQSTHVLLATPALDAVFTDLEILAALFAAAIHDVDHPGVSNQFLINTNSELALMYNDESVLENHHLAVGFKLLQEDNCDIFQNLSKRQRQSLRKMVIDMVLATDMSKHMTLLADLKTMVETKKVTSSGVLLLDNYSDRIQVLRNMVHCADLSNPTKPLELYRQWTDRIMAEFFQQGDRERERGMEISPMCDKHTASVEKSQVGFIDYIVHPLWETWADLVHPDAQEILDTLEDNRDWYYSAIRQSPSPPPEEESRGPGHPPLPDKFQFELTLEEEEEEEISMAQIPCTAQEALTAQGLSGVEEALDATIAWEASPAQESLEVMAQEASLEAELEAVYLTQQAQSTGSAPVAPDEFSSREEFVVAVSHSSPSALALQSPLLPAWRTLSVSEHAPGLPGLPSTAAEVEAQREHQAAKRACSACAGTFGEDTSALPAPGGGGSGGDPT
Experiment: PDE4 inhibitory activity assay (FAM-cAMP enzymatic reaction), PDE4A1A
Format: biochemical
Settings: 20 nM
Procedure: The compounds of the present disclosure were tested for their inhibitory activity (IC50 value) against PDE4A1A, PDE4B1, and PDE4D2. Positive compound: Trequinsin (Sigma, Cat No. T20S7). Instrument: Wallac Victor Muti-lable counter (Pekin Elmer) Steps of assay: […] Inhibition rates were calculated with Excel; and IC50 for each compound was calculated with Graphpad prism.
Measured Metric: PDE4 A1 inhibitory effect at 20 nM

>>> result("CCOc1nc([C@H](CS(C)(=O)=O)n2c(=O)[nH]c3cc(-c4ccc(F)cc4)ccc32)ccc1OC")
"+"
>>> result("CCOc1nc([C@H](CS(C)(=O)=O)n2c(=O)[nH]c3cc(-c4ccccc4F)ccc32)ccc1OC")
"+"
>>> result("CCOc1nc([C@@H](CS(C)(=O)=O)n2c(=O)n(C)c3cc(-c4cc(C)ccc4F)ccc32)ccc1OC")
"+"
>>> result("CCOc1nc([C@H](CS(C)(=O)=O)n2c(=O)[nH]c3c(C)c(-c4c(F)cccc4F)cnc32)ccc1OC")
"−"
>>> result("CCOc1nc([C@@H](CS(C)(=O)=O)n2c(=O)[nH]c3cc(-c4ccccc4CC)ccc32)ccc1OC")
"+"
>>> result("CCOc1nc([C@@H](CS(C)(=O)=O)N2C(=O)c3csc(NC(=O)CN(CC)CC)c3C2=O)ccc1OC")
"+"
>>> result("CCOc1nc([C@@H](CS(C)(=O)=O)n2c(=O)[nH]c3cc(-c4cc(OC)ccc4F)ccc32)ccc1OC")
"+"
>>> result("CCOc1nc([C@@H](CS(C)(=O)=O)N2C(=O)c3csc([N+](=O)[O-])c3C2=O)ccc1OC")
"+"
>>> result("CCOc1nc([C@@H](CS(C)(=O)=O)n2c(=O)n(C)c3cc(-c4ccc(OC)cc4F)ccc32)ccc1OC")
"+"
>>> result("CCOc1nc([C@@H](CS(C)(=O)=O)n2c(=O)n(C)c3cc(-c4ccc(F)cc4OC)ccc32)ccc1OC")
"+"
>>> result("CCOc1nc([C@@H](CS(C)(=O)=O)n2c(=O)[nH]c3cc(-c4ccc(C)cc4F)ccc32)ccc1OC")
"+"
>>> result("CCOc1nc([C@@H](CS(C)(=O)=O)n2c(=O)[nH]c3c(C)c(-c4cccc(F)c4C)cnc32)ccc1OC")
"+"
>>> result("CCOc1nc(C(CS(C)(=O)=O)N2C(=O)c3csc(NC(C)=O)c3C2=O)ccc1OC (centres unmarked)")
"+"
>>> result("CCOc1nc([C@@H](CS(C)(=O)=O)n2c(=O)n(C)c3cc(-c4cc(C)ccc4F)cnc32)ccc1OC")
"+"
>>> result("CCOc1nc([C@@H](CS(C)(=O)=O)n2c(=O)[nH]c3cc(-c4c(C)cccc4C)ccc32)ccc1OC")
"+"
>>> result("CCOc1nc([C@@H](CS(C)(=O)=O)n2c(=O)n(CC(F)F)c3c(C)c(-c4ccccc4C)cnc32)ccc1OC(C)C")
"+"
>>> result("CCOc1ccccc1-c1ccc2c(c1)[nH]c(=O)n2[C@@H](CS(C)(=O)=O)c1ccc(OC)c(OCC)n1")
"−"
>>> result("CCOc1nc([C@@H](CS(C)(=O)=O)n2c(=O)[nH]c3c(C)c(-c4ccc(F)cc4)cnc32)ccc1OC(F)F")
"+"
>>> result("CCOc1nc([C@@H](CS(C)(=O)=O)n2c(=O)[nH]c3c(C)c(-c4ccccc4C)cnc32)ccc1OC(F)F")
"+"
>>> result("CCOc1nc([C@@H](CS(C)(=O)=O)n2c(=O)n(C)c3cc(-c4ccccc4OC)cnc32)ccc1OC")
"+"
>>> result("CCOc1nc([C@@H](CS(C)(=O)=O)n2c(=O)[nH]c3cc(-c4c(F)cccc4F)cnc32)ccc1OC")
"+"
>>> result("CCOc1nc([C@@H](CS(C)(=O)=O)n2c(=O)[nH]c3cc(-c4c(F)cccc4OC)cnc32)ccc1OC")
"+"
>>> result("CCOc1nc([C@@H](CS(C)(=O)=O)n2c(=O)n(C)c3c(C)c(-c4ccccn4)cnc32)ccc1OC")
"+"
>>> result("CCOc1nc([C@@H](CS(C)(=O)=O)n2c(=O)n(CCOC)c3cc(-c4ccccn4)cnc32)ccc1OC")
"+"
>>> result("CCOc1nc([C@@H](CS(C)(=O)=O)n2c(=O)n(C)c3cc(-c4ccccc4CC)cnc32)ccc1OC")
"+"
>>> result("CCOc1nc([C@@H](CS(C)(=O)=O)n2c(=O)[nH]c3cc(-c4ccccc4CC)cnc32)ccc1OC")
"+"
>>> result("CCOc1nc([C@@H](CS(C)(=O)=O)n2c(=O)n(C)c3cc(-c4cccc(F)c4C)cnc32)ccc1OC")
"+"
>>> result("CCOc1nc([C@@H](CS(C)(=O)=O)n2c(=O)[nH]c3cc(-c4cc(F)ccc4OC)ccc32)ccc1OC")
"+"
>>> result("CCOc1nc([C@@H](CS(C)(=O)=O)n2c(=O)[nH]c3cc(-c4c(C)cccc4C)cnc32)ccc1OC")
"+"

====

molecular target: PDE4A1A (Homo sapiens); construct: purchased BPS 60040; assay: PDE4 inhibitory activity assay (FAM-cAMP enzymatic reaction), PDE4A1A; format: biochemical; conditions: 20 nM
Measured Metric: PDE4 A1 inhibitory effect at 20 nM

>>> result("CCOc1nc([C@@H](CS(C)(=O)=O)n2c(=O)[nH]c3cc(-c4ccccc4C(F)(F)F)ccc32)ccc1OC [Ex. 146]")
"+"
>>> result("CCOc1nc([C@@H](CS(C)(=O)=O)n2c(=O)[nH]c3cc(-c4ccc(F)cc4F)cnc32)ccc1OC [Ex. 94]")
"+"
>>> result("CCOc1nc([C@@H](CS(C)(=O)=O)n2c(=O)[nH]c3cc(-c4ccc(F)cc4C)ccc32)ccc1OC [Ex. 169]")
"+"
>>> result("CCOc1nc([C@H](CS(C)(=O)=O)n2c(=O)n(C)c3c(C)c(-c4ccccc4F)cnc32)ccc1OC [Ex. 22]")
"−"
